Target: JAK3 enzyme (Homo sapiens, UniProt P52333)
Sequence (P52333 whole entry, species assumed): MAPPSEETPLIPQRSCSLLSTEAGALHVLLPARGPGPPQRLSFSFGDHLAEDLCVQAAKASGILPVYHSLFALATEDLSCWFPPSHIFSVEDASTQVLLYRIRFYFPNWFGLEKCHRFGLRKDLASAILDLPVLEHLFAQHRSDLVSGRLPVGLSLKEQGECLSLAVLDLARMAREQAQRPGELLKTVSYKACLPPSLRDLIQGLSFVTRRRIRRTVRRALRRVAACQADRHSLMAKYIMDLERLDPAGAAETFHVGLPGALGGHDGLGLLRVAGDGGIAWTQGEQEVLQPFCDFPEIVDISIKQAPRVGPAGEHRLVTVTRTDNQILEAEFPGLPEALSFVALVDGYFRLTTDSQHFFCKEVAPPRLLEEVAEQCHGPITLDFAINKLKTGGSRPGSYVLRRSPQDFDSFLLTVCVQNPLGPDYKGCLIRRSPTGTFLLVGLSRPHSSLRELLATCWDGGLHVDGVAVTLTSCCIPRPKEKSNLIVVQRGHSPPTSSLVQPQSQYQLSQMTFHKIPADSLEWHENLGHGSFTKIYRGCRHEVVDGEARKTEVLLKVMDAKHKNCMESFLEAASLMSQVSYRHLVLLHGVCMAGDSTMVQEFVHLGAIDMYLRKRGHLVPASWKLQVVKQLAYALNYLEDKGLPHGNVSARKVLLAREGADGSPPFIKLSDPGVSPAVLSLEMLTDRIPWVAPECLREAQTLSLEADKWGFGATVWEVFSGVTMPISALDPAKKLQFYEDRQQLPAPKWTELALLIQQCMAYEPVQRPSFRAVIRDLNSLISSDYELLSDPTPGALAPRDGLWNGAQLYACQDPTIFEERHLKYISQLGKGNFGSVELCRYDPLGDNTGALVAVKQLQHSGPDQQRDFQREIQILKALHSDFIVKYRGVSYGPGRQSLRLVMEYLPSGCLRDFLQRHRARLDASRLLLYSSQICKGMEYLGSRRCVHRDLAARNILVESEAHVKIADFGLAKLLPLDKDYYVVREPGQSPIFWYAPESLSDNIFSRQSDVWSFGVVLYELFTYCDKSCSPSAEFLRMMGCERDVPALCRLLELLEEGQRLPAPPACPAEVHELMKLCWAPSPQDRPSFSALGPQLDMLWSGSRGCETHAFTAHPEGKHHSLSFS
Assay: JAK Caliper Enzyme Assay at 1 mM ATP
Assay type: biochemical
pIC50: −log10 of the molar value.
readoutName: pIC50

Some compounds with recorded pIC50:
[
  {
    "compound": "C=CC(=O)N1CCN(c2cnc3[nH]cc(C(=O)N[C@H](CO)CCC)c3n2)CC1(C)C",
    "subjectOfTest": "JAK3 enzyme (Homo sapiens, UniProt P52333)",
    "pIC50": 5.95
  },
  {
    "compound": "C=CC(=O)N1CCC(N(C)c2cnc3[nH]cc(C(=O)NC(C)C)c3n2)CC1",
    "subjectOfTest": "JAK3 enzyme (Homo sapiens, UniProt P52333)",
    "pIC50": 7.30
  },
  {
    "compound": "C=CC(=O)N1CC[C@@H](Nc2cnc3[nH]cc(C(=O)NCC)c3n2)[C@H](C)C1 (single isomer, unassigned) [Example 44]",
    "subjectOfTest": "JAK3 enzyme (Homo sapiens, UniProt P52333)",
    "pIC50": 7.33
  }
]

1. C=CC(=O)N1CCN(c2cnc3[nH]cc(C(=O)NC(CO)c4ccccc4F)c3n2)CC1(C)C (racemic)
2. C=CC(=O)N1CC(Nc2cnc3[nH]cc(C(=O)NCC)c3n2)CCC1C (single isomer, unassigned)
3. C=CC(=O)N1CC[C@@H](Nc2cnc3[nH]cc(C(=O)NCC)c3n2)[C@@H](C)C1 (racemic) [Example 37]
4. C=CC(=O)N1CCN(c2cnc3[nH]cc(C(=O)N[C@@H](CO)c4ccc(F)cc4)c3n2)CC1(C)C
Q) Please list these compounds in decreasing order of pIC50. # respond with the labels, arranged in the requested order
A) 3, 2, 1, 4

###

Target: JAK3 enzyme (Homo sapiens)
Experiment: JAK Caliper Enzyme Assay at 4 μM ATP
Type: biochemical
Description: Test article was solubilized in dimethyl sulfoxide (DMSO) to a stock concentration of 30 mM. An 11-point half log dilution series was created in DMSO with a top concentration of 600 μM. […] Test article and assay controls were added to a 384-well plate. […] Enzyme concentrations and incubation times were optimized for each new enzyme preps and were modified slightly over time to ensure 20%-30% phosphorylation. […]
pIC50: −log10 of the molar value.
readoutName: pIC50

Some compounds with recorded pIC50:
[
  {
    "compound": "C=CC(=O)N1CCC[C@H](Oc2cnc3[nH]cc(C(=O)N[C@@H](C)COC)c3n2)C1",
    "subjectOfTest": "JAK3 enzyme (Homo sapiens)",
    "pIC50": 8.96
  },
  {
    "compound": "C=CC(=O)N1CCN(c2cnc3[nH]cc(C(=O)NC4COCc5ccccc54)c3n2)CC1(C)C (racemic)",
    "subjectOfTest": "JAK3 enzyme (Homo sapiens)",
    "pIC50": 8.48
  },
  {
    "compound": "C=CC(=O)N1CC[C@H](Nc2cnc3c(n2)c(C(=O)NCC)cn3C)C[C@@H]1C (single isomer, unassigned)",
    "subjectOfTest": "JAK3 enzyme (Homo sapiens)",
    "pIC50": 7.49
  },
  {
    "compound": "C=CC(=O)N1CCC(Oc2cnc3[nH]cc(C(=O)NCCC(F)(F)F)c3n2)CC1",
    "subjectOfTest": "JAK3 enzyme (Homo sapiens)",
    "pIC50": 9.44
  }
]

A. C=CC(=O)N1CCC(Oc2cnc3[nH]cc(C(=O)NCC4(O)CCC(F)(F)CC4)c3n2)CC1
B. C=CC(=O)N1CC[C@H](Nc2cnc3[nH]cc(C(=O)NCC4CC(F)(F)C4)c3n2)[C@H](OC)C1
C. C=CC(=O)N1CC[C@@H](Oc2cnc3[nH]cc(C(=O)NCC)c3n2)C1
Q) Provide the items ranked by increasing pIC50. # respond with the labels, arranged in the requested order
A) C, A, B
(C: 7.85, A: 8.39, B: 9.57)
